Reference for the values: paper PMC10668032

# Lookup of reported binding signal keyed by entry
Target: SIX1 homeodomain (reference allele) (human, UniProt Q15475 108-198)
Sequence: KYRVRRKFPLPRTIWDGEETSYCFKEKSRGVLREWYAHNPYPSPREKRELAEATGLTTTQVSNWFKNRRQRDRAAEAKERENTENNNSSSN
Assay: universal protein binding microarray; Universal all-10-mer PBM (8x60K, AMADID 030236), 300 nM GST-tagged protein, Alexa Fluor 488 anti-GST; buffer, salt, pH and temperature not stated (as in Berger); high values mean tight binding
Details: protein: ivt; tags: N-terminal GST; dsDNA, one strand shown
Whole data set: some 33,000 sequences, median “e-score” near -0.053, cut for the highest 2% near 0.38. Many of the other results were omitted from the sample, so the highest values are more common in it than they were.
Reply with the number, then its unit.

These solved cases illustrate the format of a correct answer.
{"columns": ["construct_sequence", "binding signal"],
 "data": [
  ["GCAGATCC", "0.272 E-score"],
  ["ATATTATA", "0.333 E-score"]
]}

Inquiry: Using known records, supply binding signal for `CCGATCGC`
Reply text: 0.212 E-score

Inquiry: Using known records, supply binding signal for `CATCCACG`
Reply text: 0.183 E-score
